// values below are reported Inhibition of Maximal Response
Molecular target: PTHR1 receptor
Sequence (P25961 whole entry): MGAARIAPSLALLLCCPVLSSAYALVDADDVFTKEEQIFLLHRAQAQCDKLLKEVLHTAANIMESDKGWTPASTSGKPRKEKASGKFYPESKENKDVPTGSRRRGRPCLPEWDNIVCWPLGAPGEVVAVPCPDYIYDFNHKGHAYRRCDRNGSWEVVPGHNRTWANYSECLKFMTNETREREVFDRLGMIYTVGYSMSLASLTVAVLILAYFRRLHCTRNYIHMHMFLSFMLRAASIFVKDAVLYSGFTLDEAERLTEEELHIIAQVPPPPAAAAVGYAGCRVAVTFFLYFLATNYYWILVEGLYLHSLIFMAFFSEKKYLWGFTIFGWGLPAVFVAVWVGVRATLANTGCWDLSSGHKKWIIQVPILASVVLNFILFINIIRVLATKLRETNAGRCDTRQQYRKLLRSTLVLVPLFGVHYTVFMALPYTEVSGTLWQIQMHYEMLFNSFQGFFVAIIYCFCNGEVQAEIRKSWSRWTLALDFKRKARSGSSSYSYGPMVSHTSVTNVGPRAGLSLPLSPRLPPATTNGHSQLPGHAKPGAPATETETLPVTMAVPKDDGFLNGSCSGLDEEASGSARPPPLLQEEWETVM
* marks the point of attachment. Palmitoyl = CCCCCCCCCCCCCCCC(=O)*
Give just the numeric value; % need not be written.

[[record]]
binder = "Palmitoyl-SRWTLALDFKRKAR-NH2 (SMILES CCCCCCCCCCCCCCCC(=O)N[C@@H](CO)C(=O)N[C@@H](CCCNC(=N)N)C(=O)N[C@@H](Cc1c[nH]c2ccccc12)C(=O)N[C@H](C(=O)N[C@@H](CC(C)C)C(=O)N[C@@H](C)C(=O)N[C@@H](CC(C)C)C(=O)N[C@@H](CC(=O)O)C(=O)N[C@@H](Cc1ccccc1)C(=O)N[C@@H](CCCCN)C(=O)N[C@@H](CCCNC(=N)N)C(=O)N[C@@H](CCCCN)C(=O)N[C@@H](C)C(=O)N[C@@H](CCCNC(=N)N)C(N)=O)[C@@H](C)O) [Compound 104]"
uom = "%"
observed_result = 26.8


Here is the next item to consider.
Memo: Palmitoyl-NIVRVLATKLRETNAGR-NH2 (SMILES CCCCCCCCCCCCCCCC(=O)N[C@@H](CC(N)=O)C(=O)N[C@H](C(=O)N[C@H](C(=O)N[C@@H](CCCNC(=N)N)C(=O)N[C@H](C(=O)N[C@@H](CC(C)C)C(=O)N[C@@H](C)C(=O)N[C@H](C(=O)N[C@@H](CCCCN)C(=O)N[C@@H](CC(C)C)C(=O)N[C@@H](CCCNC(=N)N)C(=O)N[C@@H](CCC(=O)O)C(=O)N[C@H](C(=O)N[C@@H](CC(N)=O)C(=O)N[C@@H](C)C(=O)NCC(=O)N[C@@H](CCCNC(=N)N)C(N)=O)[C@@H](C)O)[C@@H](C)O)C(C)C)C(C)C)[C@@H](C)CC) [Compound 54] , reported Inhibition of Maximal Response: 17.5
